target: T1, recombinant cynomolgus monkey PD-L1 with a C-terminal myc-myc-hexahistidine tag (cynomolgus monkey (Macaca fascicularis)); test: SPR (Biacore), mAb captured, 37C
T1 construct: also called MfPD-L1-MMH; MfPD-L1-MMH Monomer
T1 sequence (chain, as listed by the source limits assumed): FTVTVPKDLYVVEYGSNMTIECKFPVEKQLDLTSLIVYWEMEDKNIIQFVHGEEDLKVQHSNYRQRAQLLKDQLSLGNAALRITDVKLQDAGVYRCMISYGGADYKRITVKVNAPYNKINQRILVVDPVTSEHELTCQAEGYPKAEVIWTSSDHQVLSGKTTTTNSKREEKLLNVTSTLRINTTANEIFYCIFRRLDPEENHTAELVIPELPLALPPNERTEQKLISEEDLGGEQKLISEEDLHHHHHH
Measure name: t1/2 (h)
Report as a plain number; the unit h is understood.

Value of t1/2 reported for the binder H2aM8314N (antibody, mouse IgG2, V domains shown, also called H2M8314N) VH: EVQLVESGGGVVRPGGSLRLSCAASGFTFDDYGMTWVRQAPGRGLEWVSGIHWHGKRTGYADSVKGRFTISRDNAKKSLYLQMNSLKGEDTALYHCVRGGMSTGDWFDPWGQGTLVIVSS VL: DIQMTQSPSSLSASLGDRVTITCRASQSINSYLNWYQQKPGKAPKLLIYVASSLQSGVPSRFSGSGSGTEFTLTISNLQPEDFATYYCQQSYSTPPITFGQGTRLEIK is 1.27
